Cited source: patent US9822115B2

Test system: E. coli M50
Test: Zone of inhibition, compound alone and in combination with ceftazidime (agar well)
Assay type: cell-based
Settings: Escherichia coli, M50, E. coli M50; Compound alone; 0.5 μg/well; read-out: Diameter of Zone of Inhibition
Measured zone of inhibition at 0.5 µg/disc, listed per entry for reference.
measured.metric: zone of inhibition at 0.5 µg/disc (mm)

1) C[C@@H](N)COc1ccccc1CC(=O)NNC(=O)[C@@H]1CC[C@@H]2CN1C(=O)N2OS(=O)(=O)O    11.5
2) NCc1ccc(CC(=O)NNC(=O)[C@@H]2CC[C@@H]3CN2C(=O)N3OS(=O)(=O)O)cc1    18
3) O=C(Cc1ccc(O)cc1)NNC(=O)[C@@H]1CC[C@@H]2CN1C(=O)N2OS(=O)(=O)[O-].[Na+]    13.5
4) NCCOc1ccccc1CC(=O)NNC(=O)[C@@H]1CC[C@@H]2CN1C(=O)N2OS(=O)(=O)O    14

* * *

Target: Class D beta-lactamase, A. baumannii NCTC 13301 (OXA 23) (Acinetobacter baumannii)
Construct: preincubated mixture of crude enzyme and the agents; endogenous in cells; host or cells: A. baumannii NCTC 13301
Sequence (Q9L4P2 18-273): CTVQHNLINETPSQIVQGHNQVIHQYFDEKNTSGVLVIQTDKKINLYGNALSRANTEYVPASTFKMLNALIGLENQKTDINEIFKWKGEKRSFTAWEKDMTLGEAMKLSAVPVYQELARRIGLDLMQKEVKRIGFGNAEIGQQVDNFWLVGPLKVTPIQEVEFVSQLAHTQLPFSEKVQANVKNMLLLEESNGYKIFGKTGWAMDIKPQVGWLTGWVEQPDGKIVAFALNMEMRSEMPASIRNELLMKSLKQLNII
Test: Beta-lactamase enzyme inhibition (nitrocefin, crude enzyme)
Format: biochemical
Details: Class D A. baumannii NCTC 13301 (OXA 23); read-out: Beta-lactamase enzyme inhibition IC50
pIC50: −log10 of the molar value.
Binary classification by pIC50, with 6 as an inclusive lower bound for T; all other cases are F.

1) CC(C)[C@H](N)COc1ccc(CC(=O)NNC(=O)[C@@H]2CC[C@@H]3CN2C(=O)N3OS(=O)(=O)O)cc1    T
2) O=C(Cc1ccccc1OC[C@H]1CCCN1)NNC(=O)[C@@H]1CC[C@@H]2CN1C(=O)N2OS(=O)(=O)O    F
3) CNCCOc1ccccc1CC(=O)NNC(=O)[C@@H]1CC[C@@H]2CN1C(=O)N2OS(=O)(=O)O    F
4) NCCCOc1cccc(CC(=O)NNC(=O)[C@@H]2CC[C@@H]3CN2C(=O)N3OS(=O)(=O)O)c1    F
5) O=C(Cc1cccc(O)c1)NNC(=O)[C@@H]1CC[C@@H]2CN1C(=O)N2OS(=O)(=O)O    T
6) O=C(CCCc1ccccc1)NNC(=O)[C@@H]1CC[C@@H]2CN1C(=O)N2OS(=O)(=O)O    T

* * *

Molecular target: Class A beta-lactamase, K. pneumoniae ATCC 700603 (SHV 18) (Klebsiella pneumoniae, UniProt P0AD64, E235K/G234A/R39S)
Construct: preincubated mixture of crude enzyme and the agents; endogenous in cells; host or cells: K. pneumoniae ATCC 700603
Sequence (P0AD64 22-286 R39S/G234A/E235K): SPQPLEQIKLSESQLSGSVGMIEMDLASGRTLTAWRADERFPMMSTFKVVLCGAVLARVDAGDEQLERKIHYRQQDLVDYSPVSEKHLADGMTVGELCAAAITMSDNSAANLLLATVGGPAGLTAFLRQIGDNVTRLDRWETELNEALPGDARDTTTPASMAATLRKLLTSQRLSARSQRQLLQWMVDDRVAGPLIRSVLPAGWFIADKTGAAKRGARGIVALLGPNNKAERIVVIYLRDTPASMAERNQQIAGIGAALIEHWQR
Assay: biochemical
pIC50: −log10 of the molar value.
measured.metric: pIC50

1. CN(C)c1ccc(CC(=O)NNC(=O)[C@@H]2CC[C@@H]3CN2C(=O)N3OS(=O)(=O)O)cc1    7.21
2. C[C@@H](N)COc1ccc(CC(=O)NNC(=O)[C@@H]2CC[C@@H]3CN2C(=O)N3OS(=O)(=O)O)cc1    6.95
3. CC(C)[C@H](N)COc1ccccc1CC(=O)NNC(=O)[C@@H]1CC[C@@H]2CN1C(=O)N2OS(=O)(=O)O    7.10
4. CC(C)[C@H](NC(=O)Oc1ccc(CC(=O)NNC(=O)[C@@H]2CC[C@@H]3CN2C(=O)N3OS(=O)(=O)O)cc1)C(=O)OC(C)(C)C    6.49
5. C[C@H](N)COc1cccc(CC(=O)NNC(=O)[C@@H]2CC[C@@H]3CN2C(=O)N3OS(=O)(=O)O)c1    7.42
6. O=C(Cc1cccc(O)c1)NNC(=O)[C@@H]1CC[C@@H]2CN1C(=O)N2OS(=O)(=O)O    7.92
7. C[C@H](N)COc1ccc(CC(=O)NNC(=O)[C@@H]2CC[C@@H]3CN2C(=O)N3OS(=O)(=O)O)c(F)c1    7.24
8. C[C@H](N)C(=O)Oc1ccc(CC(=O)NNC(=O)[C@@H]2CC[C@@H]3CN2C(=O)N3OS(=O)(=O)O)cc1    8.52
9. O=C(Cc1ccc(OC(=O)NC2CCCCC2)cc1)NNC(=O)[C@@H]1CC[C@@H]2CN1C(=O)N2OS(=O)(=O)O    8.10
10. NCCOc1cccc(CC(=O)NNC(=O)[C@@H]2CC[C@@H]3CN2C(=O)N3OS(=O)(=O)O)c1    7.12
11. O=C(Cc1ccc(OC(=O)[C@@H]2CCCN2)cc1)NNC(=O)[C@@H]1CC[C@@H]2CN1C(=O)N2OS(=O)(=O)O    7.80
12. NCCOc1ccc(CC(=O)NNC(=O)[C@@H]2CC[C@@H]3CN2C(=O)N3OS(=O)(=O)O)cc1    8.15
13. NCCOc1ccccc1CC(=O)NNC(=O)[C@@H]1CC[C@@H]2CN1C(=O)N2OS(=O)(=O)O    6.92
14. O=C(Cc1ccc(O)cc1F)NNC(=O)[C@@H]1CC[C@@H]2CN1C(=O)N2OS(=O)(=O)O    6.81
